Source listed as patent US5792766A.

Provide the reported pKi of each item.
Molecular target: GABAa receptor
Assay: GABAa receptor activity: inhibition of 3H-RO15-1788 (3H-Flumazenil) binding to rat cortical tissue
Conditions: 0.5 nM 3H-RO15-1788, 30 min at 4° C.
Structures can show the parent of a compound that is named as a salt.
Answers are plain numbers, as −log10 of the molar value.

# COMPOUND, EXPERIMENTAL_READOUT, NUMERIC_READOUT
data = [
    ("COc1ccc(-c2ncc3n2CN(C(=O)c2ccccc2)c2ccccc2-3)cc1", "pKi", 8.11),
]

Go through the items and report each one's pKi.
1. COc1ccc(-c2ncc3n2CN(C(=O)N2CCCCC2)c2ccccc2-3)cc1
2. COc1cccc(-c2ncc3n2CN(C(=O)N2CCCCC2)c2ccccc2-3)c1 [Compound 16, hydrochloride]
3. COc1ccc(-c2ncc3n2CN(C(=O)N(C)C)c2ccccc2-3)cc1 [Compound 2, hydrochloride]
4. COc1ccc(-c2ncc3n2CN(C(C)=O)c2ccccc2-3)cc1
5. O=C(N1CCCCCC1)N1Cn2c(cnc2-c2ccccc2)-c2ccccc21 [Compound 18, hydrochloride]
6. COc1ccc(-c2ncc3n2CN(C(=O)N2CCOCC2)c2ccccc2-3)cc1 [Compound 3, hydrochloride]
7. CCn1c(=O)n2c(-c3ccccc3F)ncc2c2ccccc21
8. COc1ccc(-c2ncc3n2CN(C(=O)c2ccccc2)c2ccccc2-3)c(F)c1

1: 8.22; 2: 7.77; 3: 8.33; 4: 7.00; 5: 7.92; 6: 8.57; 7: 6.91; 8: 8.01
